Recorded values, source ChEMBL document CHEMBL4118189.

Test: Bioavailability in Balb/c nude mouse at 5 mg/kg, ip
Format: ADME, organism-based
Details: in vivo
ENDPOINT_LABEL: bioavailability

-- ask State its bioavailability: O=C(NO)c1cccc2c1CN(c1nc3ccccc3[nH]1)C2
-- reply 81%

* * *

Biological target: Protein deacetylase HDAC6 (Homo sapiens)
Sequence (Q9UBN7 whole entry): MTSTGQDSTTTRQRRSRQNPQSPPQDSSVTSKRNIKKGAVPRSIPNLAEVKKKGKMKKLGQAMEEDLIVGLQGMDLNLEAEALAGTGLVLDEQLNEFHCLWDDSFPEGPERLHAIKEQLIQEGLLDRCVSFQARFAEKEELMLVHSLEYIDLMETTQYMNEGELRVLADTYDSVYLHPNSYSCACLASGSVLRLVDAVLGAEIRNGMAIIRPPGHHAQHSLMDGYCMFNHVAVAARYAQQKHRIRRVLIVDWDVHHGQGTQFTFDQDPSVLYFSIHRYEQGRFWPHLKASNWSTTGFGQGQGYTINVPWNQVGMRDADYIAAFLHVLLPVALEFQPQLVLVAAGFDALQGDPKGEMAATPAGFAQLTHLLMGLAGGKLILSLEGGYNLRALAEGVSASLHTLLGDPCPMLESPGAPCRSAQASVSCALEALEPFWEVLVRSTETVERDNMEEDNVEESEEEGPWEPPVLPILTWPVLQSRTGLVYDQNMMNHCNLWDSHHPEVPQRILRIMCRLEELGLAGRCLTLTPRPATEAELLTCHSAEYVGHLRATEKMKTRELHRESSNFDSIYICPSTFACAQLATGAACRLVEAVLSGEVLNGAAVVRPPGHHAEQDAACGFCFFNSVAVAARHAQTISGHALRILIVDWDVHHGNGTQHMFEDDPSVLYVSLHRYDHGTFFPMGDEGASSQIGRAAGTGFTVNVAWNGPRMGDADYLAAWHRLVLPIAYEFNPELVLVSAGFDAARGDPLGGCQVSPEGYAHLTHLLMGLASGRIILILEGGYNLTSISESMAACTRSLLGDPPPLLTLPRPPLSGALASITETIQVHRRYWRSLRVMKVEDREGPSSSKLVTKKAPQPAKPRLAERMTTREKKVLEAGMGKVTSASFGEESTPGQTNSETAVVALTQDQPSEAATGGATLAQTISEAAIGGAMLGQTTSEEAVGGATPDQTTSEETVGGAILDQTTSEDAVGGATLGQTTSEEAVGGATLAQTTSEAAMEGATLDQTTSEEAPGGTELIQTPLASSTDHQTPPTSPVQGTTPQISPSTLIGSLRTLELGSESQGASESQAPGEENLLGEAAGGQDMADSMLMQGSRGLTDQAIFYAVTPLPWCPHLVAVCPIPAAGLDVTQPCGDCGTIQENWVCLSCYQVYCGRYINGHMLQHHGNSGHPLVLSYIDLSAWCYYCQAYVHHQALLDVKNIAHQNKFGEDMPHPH
Assay: Inhibition of full length recombinant human HDAC6 using fluorescent-labeled peptide as substrate by electrophoretic mobility shift assay
Would you mind telling me the reported pIC50 of each entry?
By convention, pIC50 is the negative base-10 log of a molar concentration.

-- ask State its pIC50: O=C(NO)c1cccc2c1CN(c1nc3ccccc3[nH]1)CC2
-- reply 7.09

-- ask State its pIC50: O=C(NO)c1ccc2c(c1)CN(c1nc3ccccc3[nH]1)CC2
-- reply 8.40

-- ask State its pIC50: O=C(NO)c1ccc2c(c1)CCN(c1nc3ccccc3[nH]1)C2
-- reply 8.70

-- ask State its pIC50: O=C(NO)c1cccc2c1CCN(c1nc3ccccc3[nH]1)CC2
-- reply 5.55

* * *

Molecular target: Histone deacetylase 4 (Homo sapiens)
Sequence (P56524 whole entry): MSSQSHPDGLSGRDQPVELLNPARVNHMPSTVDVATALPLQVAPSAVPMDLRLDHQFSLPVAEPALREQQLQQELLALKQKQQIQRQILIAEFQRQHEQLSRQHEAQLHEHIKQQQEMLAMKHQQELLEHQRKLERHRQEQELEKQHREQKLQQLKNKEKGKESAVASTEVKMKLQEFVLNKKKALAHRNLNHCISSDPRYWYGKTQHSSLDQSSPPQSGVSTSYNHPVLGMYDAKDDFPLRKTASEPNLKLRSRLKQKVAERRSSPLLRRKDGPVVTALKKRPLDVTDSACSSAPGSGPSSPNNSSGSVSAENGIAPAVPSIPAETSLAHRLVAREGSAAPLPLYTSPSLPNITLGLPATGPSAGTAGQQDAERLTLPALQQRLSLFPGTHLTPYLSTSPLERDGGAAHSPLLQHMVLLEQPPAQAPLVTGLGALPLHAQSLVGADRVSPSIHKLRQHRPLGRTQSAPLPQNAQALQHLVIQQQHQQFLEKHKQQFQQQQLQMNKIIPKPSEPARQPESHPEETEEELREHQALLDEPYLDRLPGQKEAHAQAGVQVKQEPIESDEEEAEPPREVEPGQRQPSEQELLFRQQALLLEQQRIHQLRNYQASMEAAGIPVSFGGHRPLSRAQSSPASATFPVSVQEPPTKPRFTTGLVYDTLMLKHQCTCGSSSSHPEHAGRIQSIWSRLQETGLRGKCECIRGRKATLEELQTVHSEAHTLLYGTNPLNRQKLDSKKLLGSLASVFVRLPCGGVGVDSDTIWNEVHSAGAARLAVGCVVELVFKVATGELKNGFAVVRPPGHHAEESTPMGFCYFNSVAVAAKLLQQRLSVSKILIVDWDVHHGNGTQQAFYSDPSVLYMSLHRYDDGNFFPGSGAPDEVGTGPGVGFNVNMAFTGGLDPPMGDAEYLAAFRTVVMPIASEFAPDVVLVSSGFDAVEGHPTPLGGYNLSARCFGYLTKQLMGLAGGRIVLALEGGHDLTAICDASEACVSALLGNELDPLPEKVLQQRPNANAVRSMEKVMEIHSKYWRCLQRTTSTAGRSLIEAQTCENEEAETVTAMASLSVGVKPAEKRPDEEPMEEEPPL
Assay: Inhibition of full length recombinant human HDAC4 using fluorescent-labeled peptide as substrate by electrophoretic mobility shift assay
ENDPOINT_LABEL: IC50

-- ask State its IC50: CC1(C)c2cccc(C(N)=O)c2CN1c1cnc(C(F)(F)F)cn1
-- reply > 10 µM

* * *

Target: Histone deacetylase 11 (Homo sapiens)
Assay: Inhibition of full length recombinant human HDAC11 expressed in baculoviral expression system using FAM-RHKK as substrate by electrophoretic mobility shift assay
Would you mind telling me the reported pIC50 of each entry?
By convention, pIC50 is the negative base-10 log of a molar concentration.

-- ask Output reported pIC50 of the compound O=C(NO)c1cccc2c1CN(c1ccc3ccccc3n1)C2 on Histone deacetylase 11 (Homo sapiens).
-- reply 7.59

-- ask Output reported pIC50 of the compound Cc1nc(N2Cc3cccc(C(=O)NO)c3C2)[nH]c1C on Histone deacetylase 11 (Homo sapiens).
-- reply 5.64

-- ask Output reported pIC50 of the compound O=C(NO)c1cccc2c1CN(c1nc3ccc(C(F)(F)F)cc3[nH]1)C2 on Histone deacetylase 11 (Homo sapiens).
-- reply 8.70

-- ask Output reported pIC50 of the compound O=C(NO)c1cccc2c1CN(c1nc3ccccc3[nH]1)C2 on Histone deacetylase 11 (Homo sapiens).
-- reply 6.77

-- ask Output reported pIC50 of the compound CC1(C)c2cccc(C(=O)NO)c2CN1c1ccc(C(F)(F)F)cn1 on Histone deacetylase 11 (Homo sapiens).
-- reply 8.22

-- ask Output reported pIC50 of the compound CC1(C)c2cccc(C(=O)NO)c2CN1c1ncc(C(F)(F)F)cn1 on Histone deacetylase 11 (Homo sapiens).
-- reply 8.30

-- ask Output reported pIC50 of the compound CC1(C)c2cccc(C(=O)NO)c2CN1c1cnc(C(F)(F)F)nc1 on Histone deacetylase 11 (Homo sapiens).
-- reply 7.57

-- ask Output reported pIC50 of the compound O=C(NO)c1cccc2c1CN(c1nc3ccccc3[nH]1)CC2 on Histone deacetylase 11 (Homo sapiens).
-- reply 5.34

-- ask Output reported pIC50 of the compound O=C(NO)c1cccc2c1CN(c1ccc(C(F)(F)F)cn1)C2 on Histone deacetylase 11 (Homo sapiens).
-- reply 8.15

-- ask Output reported pIC50 of the compound CC1(C)c2cccc(C(=O)NO)c2CN1c1ccc(C(F)(F)F)nc1 on Histone deacetylase 11 (Homo sapiens).
-- reply 8.52

* * *

Molecular target: Histone deacetylase 11 (Homo sapiens)
Experiment: Inhibition of full length recombinant human HDAC11 expressed in baculoviral expression system using FAM-RHKK as substrate by electrophoretic mobility shift assay
pIC50: −log10 of the molar value.
Rule: pIC50 of 7 or more gives yes (1); anything lower gives no (0).

-- ask Could you tell me if the measured pIC50 of O=C(NO)c1ccc2c(c1)CN(c1nc3ccccc3[nH]1)CC2 reaches 7 or more?
-- reply no (0)

-- ask Could you tell me if the measured pIC50 of O=C(NO)c1cccc2c1CN(C1=NC3CCCCC3N1)C2 (stereo not given) reaches 7 or more?
-- reply no (0)

-- ask Could you tell me if the measured pIC50 of CC1(C)c2cccc(C(=O)NO)c2CN1c1nc2ncccc2o1 reaches 7 or more?
-- reply yes (1)

-- ask Could you tell me if the measured pIC50 of CC1(C)c2cccc(C(=O)NO)c2CN1c1nc2ccc(C(F)(F)F)cc2[nH]1 reaches 7 or more?
-- reply yes (1)

-- ask Could you tell me if the measured pIC50 of O=C(NO)c1cccc2c1CN(c1nc3ccccc3s1)C2 reaches 7 or more?
-- reply yes (1)

-- ask Could you tell me if the measured pIC50 of O=C(NO)c1cccc2c1CCN(c1nc3ccccc3[nH]1)CC2 reaches 7 or more?
-- reply yes (1)

-- ask Could you tell me if the measured pIC50 of O=C(NO)c1cccc2c1CN(c1nc3ccccc3o1)C2 reaches 7 or more?
-- reply yes (1)

-- ask Could you tell me if the measured pIC50 of CC1(C)c2cccc(C(N)=O)c2CN1c1cnc(C(F)(F)F)cn1 reaches 7 or more?
-- reply no (0)

-- ask Could you tell me if the measured pIC50 of CC1(C)c2cccc(C(=O)NO)c2CN1c1nc2cc(C(F)(F)F)ccc2o1 reaches 7 or more?
-- reply yes (1)

-- ask Could you tell me if the measured pIC50 of O=C(NO)c1cccc2c1CCN(c1nc3ccccc3[nH]1)C2 reaches 7 or more?
-- reply no (0)

* * *

Target: Histone deacetylase 11 (Homo sapiens)
Sequence (Q96DB2 whole entry): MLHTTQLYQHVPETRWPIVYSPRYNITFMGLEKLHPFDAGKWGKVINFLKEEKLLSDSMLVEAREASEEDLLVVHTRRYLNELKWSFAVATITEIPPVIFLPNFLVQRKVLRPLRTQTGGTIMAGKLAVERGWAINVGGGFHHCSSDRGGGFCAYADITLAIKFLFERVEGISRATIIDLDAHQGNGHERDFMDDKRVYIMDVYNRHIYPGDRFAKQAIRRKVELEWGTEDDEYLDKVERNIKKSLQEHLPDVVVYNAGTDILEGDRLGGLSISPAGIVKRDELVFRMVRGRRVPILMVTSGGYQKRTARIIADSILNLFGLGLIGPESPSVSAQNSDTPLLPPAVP
Assay: Inhibition of NanoLuc-tagged HDAC11 (unknown origin) by BRET assay
Would you mind telling me the reported IC50 of each entry?
Give your result in µM as a bare value.

-- ask State its IC50: CC1(C)c2cccc(C(=O)NO)c2CN1c1ccc(C(F)(F)F)cn1
-- reply 0.13

-- ask State its IC50: CC1(C)c2cccc(C(=O)NO)c2CN1c1ncc(C(F)(F)F)cn1
-- reply 0.085

-- ask State its IC50: CC1(C)c2cccc(C(=O)NO)c2CN1c1nc2ncccc2o1
-- reply 0.02

-- ask State its IC50: CC1(C)c2cccc(C(=O)NO)c2CN1c1ccc(C(F)(F)F)nc1
-- reply 0.012

-- ask State its IC50: CC1(C)c2cccc(C(=O)NO)c2CN1c1cnc(C(F)(F)F)nc1
-- reply 0.27

* * *

Would you mind telling me the reported IC50 of each entry?
Target: Histone deacetylase 2 (Homo sapiens, UniProt Q92769)
Sequence (Q92769 whole entry): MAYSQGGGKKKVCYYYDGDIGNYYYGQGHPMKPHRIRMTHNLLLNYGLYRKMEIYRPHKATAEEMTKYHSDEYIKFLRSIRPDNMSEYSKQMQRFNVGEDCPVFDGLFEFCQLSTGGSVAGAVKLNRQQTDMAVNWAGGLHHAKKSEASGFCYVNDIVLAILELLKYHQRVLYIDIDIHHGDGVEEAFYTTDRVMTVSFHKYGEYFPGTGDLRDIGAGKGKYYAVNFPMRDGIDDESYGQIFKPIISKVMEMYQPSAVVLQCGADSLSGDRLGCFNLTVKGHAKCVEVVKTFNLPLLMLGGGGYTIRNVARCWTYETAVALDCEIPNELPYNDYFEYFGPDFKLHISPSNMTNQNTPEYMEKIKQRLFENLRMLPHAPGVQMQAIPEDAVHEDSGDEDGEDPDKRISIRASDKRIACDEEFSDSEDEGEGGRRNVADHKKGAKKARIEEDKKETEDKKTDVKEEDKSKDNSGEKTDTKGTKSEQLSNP
Assay: Inhibition of full length recombinant human HDAC2 using fluorescent-labeled peptide as substrate by electrophoretic mobility shift assay

-- ask State its IC50: CC1(C)c2cccc(C(=O)NO)c2CN1c1cnc(C(F)(F)F)cn1
-- reply > 10 µM

-- ask State its IC50: CC1(C)c2cccc(C(N)=O)c2CN1c1cnc(C(F)(F)F)cn1
-- reply > 10 µM

* * *

Assay: Intrinsic clearance in mouse liver microsomes
Type: ADME, microsome
Settings: read-out: CLH
Would you mind telling me the reported microsomal CLint of each entry?
Give your result in µL/min/mg as a bare value.

-- ask State its microsomal CLint: CC1(C)c2cccc(C(=O)NO)c2CN1c1ccc(C(F)(F)F)cn1
-- reply 28

-- ask State its microsomal CLint: O=C(NO)c1cccc2c1CN(c1nc3ccccc3[nH]1)C2
-- reply 17

-- ask State its microsomal CLint: O=C(NO)c1cccc2c1CN(c1ccc(C(F)(F)F)cn1)C2
-- reply 81

-- ask State its microsomal CLint: O=C(NO)c1cccc2c1CN(c1nc3ccc(C(F)(F)F)cc3[nH]1)C2
-- reply 140

-- ask State its microsomal CLint: O=C(NO)c1cccc2c1CN(c1ccc3ccccc3n1)C2
-- reply 92

-- ask State its microsomal CLint: CC1(C)c2cccc(C(N)=O)c2CN1c1cnc(C(F)(F)F)cn1
-- reply 7

-- ask State its microsomal CLint: CC1(C)c2cccc(C(=O)NO)c2CN1c1nc2ncccc2o1
-- reply 7

-- ask State its microsomal CLint: CC1(C)c2cccc(C(=O)NO)c2CN1c1ccc(C(F)(F)F)nc1
-- reply 12

-- ask State its microsomal CLint: O=C(NO)c1cccc2c1CN(c1nc3ccccc3s1)C2
-- reply 323

-- ask State its microsomal CLint: O=C(NO)c1cccc2c1CCN(c1nc3ccccc3[nH]1)CC2
-- reply 161

-- ask State its microsomal CLint: O=C(NO)c1cccc2c1CN(C1=NC3CCCCC3N1)C2 (centres undefined)
-- reply 317

-- ask State its microsomal CLint: CC1(C)c2cccc(C(=O)NO)c2CN1c1cnc(C(F)(F)F)cn1
-- reply 22

-- ask State its microsomal CLint: CC1(C)c2cccc(C(=O)NO)c2CN1c1cnc(C(F)(F)F)nc1
-- reply 7

-- ask State its microsomal CLint: CC1(C)c2cccc(C(=O)NO)c2CN1c1nc2cc(C(F)(F)F)ccc2o1
-- reply 10

-- ask State its microsomal CLint: CC1(C)c2cccc(C(=O)NO)c2CN1c1nc2ccc(C(F)(F)F)cc2[nH]1
-- reply 12

-- ask State its microsomal CLint: Cc1nc(N2Cc3cccc(C(=O)NO)c3C2)[nH]c1C
-- reply 88

-- ask State its microsomal CLint: O=C(NO)c1cccc2c1CN(c1nc3ccccc3o1)C2
-- reply 313

-- ask State its microsomal CLint: CC1(C)c2cccc(C(=O)NO)c2CN1c1ncc(C(F)(F)F)cn1
-- reply 21
